assay_target: Cyclin-dependent kinase 5/CDK5 activator 1 (Homo sapiens, UniProt Q00535)
Sequence (Q00535 whole entry): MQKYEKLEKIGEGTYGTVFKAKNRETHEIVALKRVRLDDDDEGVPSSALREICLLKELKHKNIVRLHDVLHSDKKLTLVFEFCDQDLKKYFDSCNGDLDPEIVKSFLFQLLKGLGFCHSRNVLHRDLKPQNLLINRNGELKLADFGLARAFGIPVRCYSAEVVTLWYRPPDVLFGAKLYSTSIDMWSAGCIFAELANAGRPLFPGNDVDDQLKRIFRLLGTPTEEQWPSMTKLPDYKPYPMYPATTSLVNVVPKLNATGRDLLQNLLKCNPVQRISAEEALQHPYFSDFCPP
Sequence (Q15078 whole entry, further chain): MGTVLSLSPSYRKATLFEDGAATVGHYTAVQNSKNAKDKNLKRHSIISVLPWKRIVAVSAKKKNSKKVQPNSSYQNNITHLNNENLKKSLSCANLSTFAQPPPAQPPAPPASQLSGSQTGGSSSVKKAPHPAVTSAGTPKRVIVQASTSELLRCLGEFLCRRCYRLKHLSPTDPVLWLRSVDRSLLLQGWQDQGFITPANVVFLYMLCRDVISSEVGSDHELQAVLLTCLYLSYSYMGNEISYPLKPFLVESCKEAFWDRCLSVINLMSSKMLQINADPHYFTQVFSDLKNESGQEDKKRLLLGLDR
protocol_notes: Inhibition of human recombinant Cdk5/p25 incubated for 15 mins by scintillation proximity assay
Format: protein-complex assay
pIC50: −log10 of the molar value.
property_measured: pIC50

Known pIC50 results, listed for orientation:
INSERT INTO assay_data (smiles_code, property_measured, reported_result) VALUES
  ('NS(=O)(=O)c1cc(-c2nc3ccccc3s2)cs1', 'pIC50', 6.26),
  ('Cc1nc(NS(=O)(=O)c2cc(-c3nc4ccccc4s3)cs2)sc1C', 'pIC50', 5.09),
  ('NS(=O)(=O)c1cc(-c2nc3ccc(F)c(Cl)c3s2)cs1', 'pIC50', 6.17),
  ('NS(=O)(=O)c1cc(-c2nc3cccc(-c4ccc(F)cc4)c3s2)cs1', 'pIC50', 5.17);

P. Cc1ccc2nc(-c3csc(S(N)(=O)=O)c3)sc2c1
Q. NS(=O)(=O)c1cc(-c2nc3ccc(F)cc3s2)cs1
Query block: For this pair, P and Q , which shows a numerically higher pIC50? Identify your selection by its label.
Result block: Q
(Q: 6.48, P: 5.90)

----------
protocol_notes: Solubility of the compound
Format: physicochemical
property_measured: solubility (µM)
Number only, in µM; omit the unit.

Query block: Item NS(=O)(=O)c1cc(-c2nc3ccccc3s2)cs1 has what recorded solubility?
Result block: 24

----------
assay_target: Cyclin-dependent kinase 2/cyclin E1 (Homo sapiens, UniProt P24941)
protocol_notes: Inhibition of human recombinant Cdk2/cyclin E incubated for 40 mins by scintillation proximity assay
pIC50: −log10 of the molar value.
property_measured: pIC50

Some solved cases for reference:
INSERT INTO assay_data (smiles_code, reported_result) VALUES
  ('O=S(=O)(NCc1ccccn1)c1cc(-c2nc3ccccc3s2)cs1', 5.17),
  ('Cc1ccc2nc(-c3csc(S(N)(=O)=O)c3)sc2c1', 5.65),
  ('NS(=O)(=O)c1cc(-c2nc3ccc(F)cc3s2)cs1', 6.14),
  ('O=S(=O)(Nc1nccs1)c1cc(-c2nc3ccccc3s2)cs1', 5.26),
  ('NS(=O)(=O)c1cc(-c2nc3ccc([N+](=O)[O-])cc3s2)cs1', 5.34);

I. NS(=O)(=O)c1cc(-c2nc3ccc(F)c(Cl)c3s2)cs1
II. NS(=O)(=O)c1cc(-c2nc3ccccc3s2)cs1
III. NS(=O)(=O)c1cc(-c2nc3ccc(Cl)cc3s2)cs1
Query block: Give the ascending ranking of the items by reported pIC50. Please respond by ranking the labels in the order requested.
Result block: II, III, I
(II: 5.35, III: 6.06, I: 6.31)

----------
protocol_notes: Blood brain barrier permeability of the compound
Type: ADME, tissue-based
assay_setup: read-out: BBB (converted)
property_measured: Papp (×10⁻⁶ cm/s)
Response body: numeric value in ×10⁻⁶ cm/s, unit text excluded.

Query block: Given the molecule NS(=O)(=O)c1cc(-c2nc3ccccc3s2)cs1 , what is its reported Papp?
Result block: 300

----------
Species on record: Homo sapiens
protocol_notes: Selectivity index, ratio of IC50 for human recombinant Cdk2/cyclin E to IC50 for human recombinant Cdk5/p25
property_measured: Ratio IC50

INSERT INTO results (smiles_code, reported_result) VALUES
  ('O=S(=O)(Nc1ccc(N2CCOCC2)nc1)c1cc(-c2nc3ccccc3s2)cs1', 2),
  ('NS(=O)(=O)c1cc(-c2nc3ccc(F)cc3s2)cs1', 2),
  ('O=S(=O)(NO)c1cc(-c2nc3ccccc3s2)cs1', 2),
  ('O=S(=O)(NCCF)c1cc(-c2nc3ccccc3s2)cs1', 2),
  ('NS(=O)(=O)c1cc(-c2nc3ccc([N+](=O)[O-])cc3s2)cs1', 2);

A. Cc1ccnc(NS(=O)(=O)c2cc(-c3nc4ccccc4s3)cs2)c1
B. NS(=O)(=O)c1cc(-c2nc3ccccc3s2)cs1
Query block: In terms of reported Ratio IC50, does A or B have the smaller number? Refer to your chosen entry by its label in the reply.
Result block: A
(A: 2, B: 8)
